Test: chemical genetic growth profiling, strain panel (AID 1159580);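 further: tested at 20 µM; growth read once vehicle control cultures reached saturation at 30 °C; 1 = growth at the plate median or of vehicle wells; lower values mean less growth of the strain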
Details: S. cerevisiae deletion strains, growth OD, locus YMR219W, strain ESC1
The campaign covered roughly 5,500 compounds. About 2,000 (36%) were called active. Not shown: some 18% with an inconclusive outcome. No stated cut-off is given here; in the data, active means normalized growth mostly below about 0.91 (no sharp cut-off); inconclusive means no clear call, values can overlap the other calls; inactive means mostly above about 0.92. The list shows a part of the results.
// one of active, inactive, no free text

// known answers, use as guide
compound=CCCc1cc(=O)oc2c1c(C)nn2-c1ccccc1 class_label=active
compound=Cc1onc(-c2c(Cl)cccc2Cl)c1NC(=O)O/N=C\c1ccc(N(C)C)cc1 class_label=inactive
compound=CC(C)(C)c1cc(C(=O)NNC(=O)c2cc(C(F)(F)F)cc(C(F)(F)F)c2)n(Cc2ccc(F)cc2)n1 class_label=inactive
compound=COc1c(Br)cc(/C(N)=N\OC(=O)c2c(-c3c(Cl)cccc3Cl)noc2C)cc1Br class_label=inactive
compound=Cc1cccc(Cn2nc(C(C)(C)C)cc2C(=O)O)c1 class_label=inactive

Task: Lab log entry: "CCCc1cc(=O)oc2cc(OCC(=O)OCC)ccc12" — outcome as called in the assay?
Result: inactive

###

Assay: chemical genetic growth profiling, strain panel (AID 1159580);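 further: tested at 20 µM; growth read once vehicle control cultures reached saturation at 30 °C; 1 = growth at the plate median or of vehicle wells; lower values mean less growth of the strain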
Conditions: S. cerevisiae deletion strains, growth OD, locus YGR252W, strain gcn5
The campaign covered roughly 5,500 compounds. About 2,000 (36%) were called active. About 18% were inconclusive and are not listed. No stated cut-off is given here; in the data, active means normalized growth mostly below about 0.91 (no sharp cut-off); inconclusive means no clear call, values can overlap the other calls; inactive means mostly above about 0.92. The list shows a part of the results.
Select the correct class. Options are label 1 = active, label 0 = inactive and nothing else.

Past entries and their recorded results:
compound=NC1=NCCN1CC(=O)O class_label="label 0"
compound=CCOC(=O)NNc1nncc2ccccc12 class_label="label 0"
compound="CC(C)(C)NCC(O)c1ccc(O)c(CO)c1 (stereo not drawn)" class_label="label 0"
compound=O=C1NC(O)=NC1(c1ccccc1)c1ccccc1 class_label="label 0"
compound=CCCSc1ccc2nc(NC(=O)OC)[nH]c2c1 class_label="label 0"

Task: For "CC(=O)Oc1ccc(C(c2ccc(OC(C)=O)cc2)c2ccccn2)cc1" , which call appears in the assay record?
Result: label 0

Task: Proceed to CC(C)c1ccc2c(c1)CCC1[C@](C)(CN)CCC[C@]21C (stereo partly drawn)
Result: label 1

Task: Please answer likewise for "COc1ccc2cc(CCC(C)=O)ccc2c1"
Result: label 1

Task: Queued: "N=C(N)N"
Result: label 0

Task: Then "CN(C)[C@@H]1C(=O)C(C(N)=O)=C(O)[C@@]2(O)C(=O)C3=C(O)c4c(O)cccc4[C@@](C)(O)[C@H]3[C@H](O)[C@@H]12" ?
Result: label 0

Task: Could you do the same for CC(C)=CCCC(C)C1CC[C@@]2(C)C3=C(CC[C@]12C)C1(C)CC[C@H](O)C(C)(C)C1CC3 (stereo partly drawn) , please?
Result: label 0

###

Experiment: chemical genetic growth profiling, strain panel (AID 1159580);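 further: tested at 20 µM; growth read once vehicle control cultures reached saturation at 30 °C; 1 = growth at the plate median or of vehicle wells; lower values mean less growth of the strain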
Settings: S. cerevisiae deletion strains, growth OD, locus YNL233W, strain BNI4
Out of some 5,500 compounds screened, about 2,000 (36%) were called active. Roughly 18% stayed inconclusive and do not appear here. Cut-off read from the data, not from the text of the source: active = normalized growth mostly below about 0.91 (no sharp cut-off); inconclusive = no clear call, values can overlap the other calls; inactive = mostly above about 0.92. The list shows a part of the results.
The categories you may choose from are true (1) for active, false (0) for inactive

Some entries whose results are on file:
compound="CC(C)=CCCC(C)[C@@H]1CC[C@]2(C)C3=C(CC[C@@]12C)C1(C)CC[C@H](O)C(C)(C)C1CC3 (stereo not given in full)" class_label="true (1)"
compound="CC(C)=CCCC(C)C1CC[C@@]2(C)C3=C(CC[C@]12C)C1(C)CC[C@H](O)C(C)(C)C1CC3 (stereo not given in full)" class_label="false (0)"
compound="CC(C)CC1NC(=O)CNC1=O (stereo not given)" class_label="false (0)"
compound="CC(=O)O[C@H]1CCC2(C)C3=C(CCC2C1(C)C)[C@@]1(C)CC[C@@H](C(C)CCC=C(C)C)[C@]1(C)CC3 (stereo not given in full)" class_label="false (0)"

Next item in the queue.
Task: So what was the verdict on "Oc1c(Cl)cc(Cl)cc1Sc1cc(Cl)cc(Cl)c1O" in this test?
Result: false (0)
